I'd appreciate it if you could supply content (%) values for the items below.
- measurementProtocol: High temperature test (60° C.)
- Assay type: physicochemical
- assayContext: sealed ampoules, day 10
- Method: Samples were sealed in clean glass ampoules and put in 60° C. thermostatic drying chamber, then they were taken on the fifth and tenth day respectively for determination, compared with the result of day 0, results were listed in the table below: Samples were sealed in clean glass ampoules and put in 60° C. thermostatic drying chamber, then they were taken on the fifth and tenth day respectively for determination, compared with the result of day 0, results were listed in the table below
Quick reminder: number only, in %, skip the unit.

Challenge: # input compound: C[C@H](Cn1cnc2c(N)ncnc21)OCP(=O)(OCOC(=O)C(C)(C)C)OCOC(=O)C(C)(C)C [TD crystalline form A] ; wanted: its content (%)
Response given: 98.4

Challenge: # repeat for C[C@H](Cn1cnc2c(N)ncnc21)OCP(=O)(OCOC(=O)C(C)(C)C)OCOC(=O)C(C)(C)C [amorphous TD]
Response given: 97.1

Challenge: # repeat for C[C@H](Cn1cnc2c(N)ncnc21)OCP(=O)(OCOC(=O)C(C)(C)C)OCOC(=O)C(C)(C)C [TD crystalline form B]
Response given: 97.0

Challenge: # repeat for C[C@H](Cn1cnc2c(N)ncnc21)OCP(=O)(OCOC(=O)C(C)(C)C)OCOC(=O)C(C)(C)C.O=C(O)/C=C/C(=O)O [TD fumarate]
Response given: 99.4

Challenge: # repeat for CC(Cn1cnc2c(N)ncnc21)OCP(=O)(OCOC(=O)C(C)(C)C)OCOC(=O)C(C)(C)C.CC1(C)CCC2(C(=O)O)CCC3(C)C(=CCC4C5(C)CCC(O)C(C)(C)C5CCC43C)C2C1 (centres unmarked) [TD oleanolate]
Response given: 98.6

====

- measurementProtocol: Acute toxicity test, median lethal dose (LD50)
- assayContext: both sexes, mouse, in vivo, oral, mice, infused into the stomach, observed 14 days; read-out: LD50, 95% confident limit
parameter: LD50 at 14 days

Challenge: # input compound: C[C@H](Cn1cnc2c(N)ncnc21)OCP(=O)(OCOC(=O)C(C)(C)C)OCOC(=O)C(C)(C)C [TD crystalline form A] ; wanted: its LD50 at 14 days
Response given: 2830 to 5440 mg/kg

Challenge: # repeat for C[C@H](Cn1cnc2c(N)ncnc21)OCP(=O)(OCOC(=O)C(C)(C)C)OCOC(=O)C(C)(C)C.O=C(O)/C=C/C(=O)O [TD fumarate]
Response given: 4500 to 7870 mg/kg

====

I'd appreciate it if you could supply content (%) values for the items below.
- measurementProtocol: High humidity test (room temperature, relative humidity 75±5%)
- Type: physicochemical
- assayContext: 25° C., day 0
Quick reminder: number only, in %, skip the unit.

Challenge: # input compound: C[C@H](Cn1cnc2c(N)ncnc21)OCP(=O)(OCOC(=O)C(C)(C)C)OCOC(=O)C(C)(C)C [amorphous TD] ; wanted: its content (%)
Response given: 99.0

Challenge: # repeat for C[C@H](Cn1cnc2c(N)ncnc21)OCP(=O)(OCOC(=O)C(C)(C)C)OCOC(=O)C(C)(C)C.O=C(O)/C=C/C(=O)O [TD fumarate]
Response given: 99.2

Challenge: # repeat for C[C@H](Cn1cnc2c(N)ncnc21)OCP(=O)(OCOC(=O)C(C)(C)C)OCOC(=O)C(C)(C)C [TD crystalline form B]
Response given: 99.6

Challenge: # repeat for C[C@H](Cn1cnc2c(N)ncnc21)OCP(=O)(OCOC(=O)C(C)(C)C)OCOC(=O)C(C)(C)C [TD crystalline form A]
Response given: 99.7

Challenge: # repeat for CC(Cn1cnc2c(N)ncnc21)OCP(=O)(OCOC(=O)C(C)(C)C)OCOC(=O)C(C)(C)C.CC1(C)CCC2(C(=O)O)CCC3(C)C(=CCC4C5(C)CCC(O)C(C)(C)C5CCC43C)C2C1 (centres unmarked) [TD oleanolate]
Response given: 99.2

====

I'd appreciate it if you could supply content (%) values for the items below.
- measurementProtocol: Acceleration test (40° C., relative humidity 75%)
- Type: physicochemical
- assayContext: end of month 2
The answer should read as a number with its unit following.

Challenge: # input compound: C[C@H](Cn1cnc2c(N)ncnc21)OCP(=O)(OCOC(=O)C(C)(C)C)OCOC(=O)C(C)(C)C [amorphous TD] ; wanted: its content (%)
Response given: 88.9%

Challenge: # repeat for C[C@H](Cn1cnc2c(N)ncnc21)OCP(=O)(OCOC(=O)C(C)(C)C)OCOC(=O)C(C)(C)C [TD crystalline form B]
Response given: 92.7%

Challenge: # repeat for C[C@H](Cn1cnc2c(N)ncnc21)OCP(=O)(OCOC(=O)C(C)(C)C)OCOC(=O)C(C)(C)C.O=C(O)/C=C/C(=O)O [TD fumarate]
Response given: 98.7%

Challenge: # repeat for C[C@H](Cn1cnc2c(N)ncnc21)OCP(=O)(OCOC(=O)C(C)(C)C)OCOC(=O)C(C)(C)C [TD crystalline form A]
Response given: 90.5%

Challenge: # repeat for CC(Cn1cnc2c(N)ncnc21)OCP(=O)(OCOC(=O)C(C)(C)C)OCOC(=O)C(C)(C)C.CC1(C)CCC2(C(=O)O)CCC3(C)C(=CCC4C5(C)CCC(O)C(C)(C)C5CCC43C)C2C1 (centres unmarked) [TD oleanolate]
Response given: 98.5%

====

- measurementProtocol: Acute toxicity test, median lethal dose (LD50)
- assayContext: both sexes, mouse, in vivo, oral, mice, infused into the stomach, observed 14 days; read-out: LD50
parameter: LD50 at 14 days (mg/kg)
Quick reminder: number only, in mg/kg, skip the unit.

Challenge: # input molecule: C[C@H](Cn1cnc2c(N)ncnc21)OCP(=O)(OCOC(=O)C(C)(C)C)OCOC(=O)C(C)(C)C.O=C(O)/C=C/C(=O)O [TD fumarate] ; wanted: its LD50 at 14 days
Response given: 6050

Challenge: # repeat for C[C@H](Cn1cnc2c(N)ncnc21)OCP(=O)(OCOC(=O)C(C)(C)C)OCOC(=O)C(C)(C)C [TD crystalline form A]
Response given: 4310

====

- measurementProtocol: High humidity test (room temperature, relative humidity 75±5%)
- Format: physicochemical
- assayContext: 25° C., day 10
I'd appreciate it if you could supply content (%) values for the items below.
Quick reminder: number only, in %, skip the unit.

Challenge: # input compound: C[C@H](Cn1cnc2c(N)ncnc21)OCP(=O)(OCOC(=O)C(C)(C)C)OCOC(=O)C(C)(C)C [TD crystalline form B] ; wanted: its content (%)
Response given: 96.9

Challenge: # repeat for C[C@H](Cn1cnc2c(N)ncnc21)OCP(=O)(OCOC(=O)C(C)(C)C)OCOC(=O)C(C)(C)C [TD crystalline form A]
Response given: 97.2

Challenge: # repeat for C[C@H](Cn1cnc2c(N)ncnc21)OCP(=O)(OCOC(=O)C(C)(C)C)OCOC(=O)C(C)(C)C [amorphous TD]
Response given: 95.8

Challenge: # repeat for CC(Cn1cnc2c(N)ncnc21)OCP(=O)(OCOC(=O)C(C)(C)C)OCOC(=O)C(C)(C)C.CC1(C)CCC2(C(=O)O)CCC3(C)C(=CCC4C5(C)CCC(O)C(C)(C)C5CCC43C)C2C1 (centres unmarked) [TD oleanolate]
Response given: 99.1

Challenge: # repeat for C[C@H](Cn1cnc2c(N)ncnc21)OCP(=O)(OCOC(=O)C(C)(C)C)OCOC(=O)C(C)(C)C.O=C(O)/C=C/C(=O)O [TD fumarate]
Response given: 99.1

====

- measurementProtocol: High humidity test (room temperature, relative humidity 75±5%)
- Type: physicochemical
- assayContext: 25° C., day 5
parameter: content (%)
Quick reminder: number only, in %, skip the unit.

Challenge: # input molecule: C[C@H](Cn1cnc2c(N)ncnc21)OCP(=O)(OCOC(=O)C(C)(C)C)OCOC(=O)C(C)(C)C.O=C(O)/C=C/C(=O)O [TD fumarate] ; wanted: its content (%)
Response given: 99.1

Challenge: # repeat for C[C@H](Cn1cnc2c(N)ncnc21)OCP(=O)(OCOC(=O)C(C)(C)C)OCOC(=O)C(C)(C)C [TD crystalline form A]
Response given: 98.5

Challenge: # repeat for CC(Cn1cnc2c(N)ncnc21)OCP(=O)(OCOC(=O)C(C)(C)C)OCOC(=O)C(C)(C)C.CC1(C)CCC2(C(=O)O)CCC3(C)C(=CCC4C5(C)CCC(O)C(C)(C)C5CCC43C)C2C1 (centres unmarked) [TD oleanolate]
Response given: 99.1

Challenge: # repeat for C[C@H](Cn1cnc2c(N)ncnc21)OCP(=O)(OCOC(=O)C(C)(C)C)OCOC(=O)C(C)(C)C [amorphous TD]
Response given: 97.9

Challenge: # repeat for C[C@H](Cn1cnc2c(N)ncnc21)OCP(=O)(OCOC(=O)C(C)(C)C)OCOC(=O)C(C)(C)C [TD crystalline form B]
Response given: 98.2

====

- Format: physicochemical
- assayContext: to dissolve 1 g of sample; anhydrous ethanol
parameter: amount of solvent (ml), anhydrous ethanol (mL)
Quick reminder: number only, in mL, skip the unit.

Challenge: # input compound: C[C@H](Cn1cnc2c(N)ncnc21)OCP(=O)(OCOC(=O)C(C)(C)C)OCOC(=O)C(C)(C)C.O=C(O)/C=C/C(=O)O [TD fumarate] ; wanted: its amount of solvent (ml), anhydrous ethanol
Response given: 15.5

Challenge: # repeat for CC(Cn1cnc2c(N)ncnc21)OCP(=O)(OCOC(=O)C(C)(C)C)OCOC(=O)C(C)(C)C.CC1(C)CCC2(C(=O)O)CCC3(C)C(=CCC4C5(C)CCC(O)C(C)(C)C5CCC43C)C2C1 (centres unmarked) [TD oleanolate]
Response given: 650

Challenge: # repeat for C[C@H](Cn1cnc2c(N)ncnc21)OCP(=O)(OCOC(=O)C(C)(C)C)OCOC(=O)C(C)(C)C [amorphous TD]
Response given: 5.6

Challenge: # repeat for C[C@H](Cn1cnc2c(N)ncnc21)OCP(=O)(OCOC(=O)C(C)(C)C)OCOC(=O)C(C)(C)C [TD crystalline form B]
Response given: 6.0

Challenge: # repeat for C[C@H](Cn1cnc2c(N)ncnc21)OCP(=O)(OCOC(=O)C(C)(C)C)OCOC(=O)C(C)(C)C [TD crystalline form A]
Response given: 5.0

// provenance: patent US8507463B2
